ASSAY TEXT: Acute toxicity (LD50, Litchfield-Wilcoxon method), oral administration to mouse
DETAILS: in vivo
MEASURED PARAMETER: LD50

Completed entries (count: 3):
>>> result("COc1ccccc1N1CCN(CCCCC(=O)c2ccc(SC)c(S(N)(=O)=O)c2)CC1 [Compound No. 6]")
"> 3000 mg/kg"
>>> result("COc1ccc(C(=O)CCCCN2CCN(c3ccccc3OC)CC2)cc1NC(N)=O [Compound No. 26]")
"2700 mg/kg"
>>> result("COc1ccccc1N1CCN(CCCCC(=O)c2ccc([S+](C)[O-])c(NC(N)=O)c2)CC1 (stereo not shown) [Compound No. 35]")
"> 3000 mg/kg"

Could you now consider this next compound?
# LD50 lookup, item COc1ccccc1N1CCN(CCCCC(=O)c2ccc(O)c(C(N)=O)c2)CC1 [Compound No. 12]
> 3000 mg/kg
